experiment: Pharmacokinetic study of tetrabenazine and dihydrotetrabenazine metabolites in plasma after oral tetrabenazine 25 mg tablets; assay type: in vivo, human; conditions: multiple-dose oral tetrabenazine 25 mg once a day, fasting, N=07

>  <compound>
COc1cc2c(cc1OC)[C@H]1C[C@H](O)[C@H](CC(C)C)CN1CC2 [(+)-β-DHTBZ]

>  <Cmaxss / ng/mL>
144.76

$$$$
>  <compound>
COc1cc2c(cc1OC)[C@@H]1C[C@H](O)[C@@H](CC(C)C)CN1CC2 [(−)-α-DHTBZ]

>  <Cmaxss / ng/mL>
98.34

$$$$
>  <compound>
COc1cc2c(cc1OC)C1CC(=O)C(CC(C)C)CN1CC2 (racemic)

>  <Cmaxss / ng/mL>
0.73

$$$$
>  <compound>
COc1cc2c(cc1OC)[C@H]1C[C@@H](O)[C@H](CC(C)C)CN1CC2 [(+)-α-DHTBZ]

>  <Cmaxss / ng/mL>
3.31

$$$$

###

assay: Pharmacokinetic study of tetrabenazine and dihydrotetrabenazine metabolites in plasma after oral tetrabenazine 25 mg tablets; assay type: in vivo, human; conditions: male, human, plasma; single-dose oral tetrabenazine 25 mg, fasting, N=08
propertyName: AUC(0-inf) (ng·h/mL)

>  <compound>
COc1cc2c(cc1OC)[C@H]1C[C@H](O)[C@H](CC(C)C)CN1CC2 [(+)-β-DHTBZ]

>  <propertyName>
AUC(0-inf)

>  <measuredResult>
410

$$$$
>  <compound>
COc1cc2c(cc1OC)[C@H]1C[C@@H](O)[C@H](CC(C)C)CN1CC2 [(+)-α-DHTBZ]

>  <propertyName>
AUC(0-inf)

>  <measuredResult>
10.8

$$$$
>  <compound>
COc1cc2c(cc1OC)[C@@H]1C[C@H](O)[C@@H](CC(C)C)CN1CC2 [(−)-α-DHTBZ]

>  <propertyName>
AUC(0-inf)

>  <measuredResult>
352

$$$$
>  <compound>
COc1cc2c(cc1OC)C1CC(=O)C(CC(C)C)CN1CC2 (racemic)

>  <propertyName>
AUC(0-inf)

>  <measuredResult>
2.42

$$$$

###

experiment: Pharmacokinetic study of tetrabenazine and dihydrotetrabenazine metabolites in plasma after oral tetrabenazine 25 mg tablets; assay type: in vivo, human; settings: single-dose oral tetrabenazine 25 mg, fasting, N=08; unit inferred
Overview of recorded Kel for various compounds
propertyName: Kel

>  <compound>
COc1cc2c(cc1OC)[C@@H]1C[C@H](O)[C@@H](CC(C)C)CN1CC2 [(−)-α-DHTBZ]

>  <propertyName>
Kel

>  <measuredResult>
0.1 h⁻¹

$$$$
>  <compound>
COc1cc2c(cc1OC)C1CC(=O)C(CC(C)C)CN1CC2 (racemic) [Tetrabenazine]

>  <propertyName>
Kel

>  <measuredResult>
0.19 h⁻¹

$$$$
>  <compound>
COc1cc2c(cc1OC)[C@H]1C[C@@H](O)[C@H](CC(C)C)CN1CC2 [(+)-α-DHTBZ]

>  <propertyName>
Kel

>  <measuredResult>
0.17 h⁻¹

$$$$
>  <compound>
COc1cc2c(cc1OC)[C@H]1C[C@H](O)[C@H](CC(C)C)CN1CC2 [(+)-β-DHTBZ]

>  <propertyName>
Kel

>  <measuredResult>
0.13 h⁻¹

$$$$

###

experiment: Pharmacokinetic study of tetrabenazine and dihydrotetrabenazine metabolites in plasma after oral tetrabenazine 25 mg tablets; format: in vivo, human; settings: human; single-dose oral tetrabenazine 25 mg, fasting, N=08, healthy adult male volunteers, plasma
propertyName: Tmax (h)

>  <molecule>
COc1cc2c(cc1OC)[C@H]1C[C@H](O)[C@H](CC(C)C)CN1CC2 [(+)-β-DHTBZ]

>  <measuredResult>
1.12

$$$$
>  <molecule>
COc1cc2c(cc1OC)C1CC(=O)C(CC(C)C)CN1CC2 (racemic)

>  <measuredResult>
0.87

$$$$
>  <molecule>
COc1cc2c(cc1OC)[C@H]1C[C@@H](O)[C@H](CC(C)C)CN1CC2 [(+)-α-DHTBZ]

>  <measuredResult>
1.16

$$$$
>  <molecule>
COc1cc2c(cc1OC)[C@@H]1C[C@H](O)[C@@H](CC(C)C)CN1CC2 [(−)-α-DHTBZ]

>  <measuredResult>
0.938

$$$$

###

Overview of recorded AUC(0-t) for various compounds
assay: Pharmacokinetic study of tetrabenazine and dihydrotetrabenazine metabolites in plasma after oral tetrabenazine 25 mg tablets; assay type: in vivo, human; conditions: male, human, plasma, po, 25 mg, single-dose oral tetrabenazine 25 mg, fasting, N=08

>  <compound>
COc1cc2c(cc1OC)[C@@H]1C[C@H](O)[C@@H](CC(C)C)CN1CC2 [(−)-α-DHTBZ]

>  <unitSpec>
ng·h/mL

>  <AUC(0-t)>
306

$$$$
>  <compound>
COc1cc2c(cc1OC)[C@H]1C[C@H](O)[C@H](CC(C)C)CN1CC2 [(+)-β-DHTBZ]

>  <unitSpec>
ng·h/mL

>  <AUC(0-t)>
376

$$$$
>  <compound>
COc1cc2c(cc1OC)C1CC(=O)C(CC(C)C)CN1CC2 (racemic)

>  <unitSpec>
ng·h/mL

>  <AUC(0-t)>
1.87

$$$$
>  <compound>
COc1cc2c(cc1OC)[C@H]1C[C@@H](O)[C@H](CC(C)C)CN1CC2 [(+)-α-DHTBZ]

>  <unitSpec>
ng·h/mL

>  <AUC(0-t)>
7.98

$$$$

###

Experiment: Pharmacokinetic study of tetrabenazine and dihydrotetrabenazine metabolites in plasma after oral tetrabenazine 25 mg tablets
Assay type: in vivo, human
Conditions: male, human, plasma, po, 25 mg, multiple-dose oral tetrabenazine 25 mg once a day, fasting, N=07
Description: A pharmacokinetic study was carried out in healthy adult male volunteers under fasting conditions at a dose of single and multiple oral administration of 25 mg tablets once a day to ascertain the plasma levels of +/−α and +/−β dihydrotetrabenazine. Table 1 summarises the pharmacokinetic data obtained following single-dose oral administration of tetrabenazine at a dose level of 25 mg (fasting, N=08). […]
Overview of recorded AUC(0-t) for various compounds
propertyName: AUC(0-t) (ng·h/mL)

>  <compound>
COc1cc2c(cc1OC)[C@@H]1C[C@H](O)[C@@H](CC(C)C)CN1CC2 [(−)-α-DHTBZ]

>  <measuredResult>
474

$$$$
>  <compound>
COc1cc2c(cc1OC)[C@H]1C[C@H](O)[C@H](CC(C)C)CN1CC2 [(+)-β-DHTBZ]

>  <measuredResult>
599

$$$$
>  <compound>
COc1cc2c(cc1OC)C1CC(=O)C(CC(C)C)CN1CC2 (racemic)

>  <measuredResult>
2.79

$$$$
>  <compound>
COc1cc2c(cc1OC)[C@H]1C[C@@H](O)[C@H](CC(C)C)CN1CC2 [(+)-α-DHTBZ]

>  <measuredResult>
13.7

$$$$
